Cited source for all entries: patent US20160022683A1

Assay: clinical
Conditions: human, in vivo, oral, Cmax, Ibrutinib 140 mg + grapefruit juice, fed; n=8; spread in brackets
RECORDED METRIC: Cmax (ng/mL)

- C=CC(=O)N1CCC[C@@H](n2nc(-c3ccc(Oc4ccccc4)cc3)c3c(N)ncnc32)C1 [Ibrutinib]: 125

----------
Assay: clinical
Details: human, in vivo, oral, 560 mg, AUClast, Ibrutinib 560 mg alone, fasted; n=8; spread in brackets
RECORDED METRIC: AUC(0-t) (ng·h/mL)

* C=CC(=O)N1CCC[C@@H](n2nc(-c3ccc(Oc4ccccc4)cc3)c3c(N)ncnc32)C1 | 289

----------
Test: clinical
Details: male, human, plasma, oral, 120 mg
RECORDED METRIC: AUC(0-inf) (ng·h/mL)

• C=CC(=O)N1CCC[C@@H](n2nc(-c3ccc(Oc4ccccc4)cc3)c3c(N)ncnc32)C1 [Ibrutinib] = 22.4
